Would you mind telling me the reported protein stability index of each entry?
test: protein stability index of a GFP-peptide fusion (yeast GPS) (PSI 1-4); higher = more stable; sorted into four equal gates, so the index is relative within each strain; settings: doa10∆
Just the number, please.

[in] Suppose we examine the sequence AKITEIGSTSKRPIESG [YIL149C/MLP2] ; what protein stability index value has been reported?
[out] 3.23

[in] # query: protein stability index of entry PELNVSLNLTDDVISNA [MCD1]
[out] 3.09

[in] Which value of protein stability index has been reported for NSITSGGLKSCDLDFPL [YDL116W/NUP84] in the records?
[out] 2.78

[in] So what does the record say about protein stability index for VKKTGENEISSLLAMHK [CDC53] ?
[out] 2.75

[in] Data request, read-out protein stability index, for KKRKNKSSGSSMATPTH [ROX3]
[out] 2.99

[in] Would you kindly share the measured protein stability index for KRQAYAVSEKAGHQTSA [RPL4A] ?
[out] 2.14

[in] Quick one: protein stability index of NGKVQYFLRRQYILQIV [YJL039C/NUP192] ?
[out] 1.42

[in] Given KKVQALQSDKNFLDNCL [ITC1] , state its recorded protein stability index.
[out] 3.13

[in] Param item = TADAEILINTARIHAQN [PRE9] ; retrieve measured protein stability index.
[out] 2.92

[in] Could you tell me which protein stability index is on file for VKDLGQGLKLAKKHKLN [SMC3] ?
[out] 3.12

[in] Entry QDNHHITKVTENLFSKE [YMR129W/POM152] : reported protein stability index = ?
[out] 2.86

[in] Record request: protein stability index value, item VTAKLLGFTPGELRSYL [FAS1]
[out] 2.91

[in] I would be grateful if you could share the reported protein stability index for SIWGNGYSGYGNGITNT [SNF5] .
[out] 3.26

[in] protein stability index lookup needed for DIAFVLNNLPYKNEDVT [YCS4] , thanks.
[out] 2.61

[in] Which protein stability index is reported for this sequence? QQVEGKLSQMILDKIFY [RPN6]
[out] 2.81

[in] Which protein stability index reading was recorded for the sequence NGFHGRLGDLGVIDDSF [SMC4] ?
[out] 3.51

[in] # query: protein stability index of entry SHDASRSLASFEQTAFS [SIR4]
[out] 2.86

[in] Reported protein stability index for ISFAAFILADAGLEITS [RPP1B] : what is it?
[out] 1.98

[in] For the sequence shown here, SNTNDNISIITLELESF [RGR1] , give the reported protein stability index.
[out] 2.54

[in] protein stability index for EVQRILIELLTQMDGFD [RPT3] ?
[out] 1.36

[in] I have this sequence here, PYFEQKIQETELKIRSK [RPT6] , and I need its recorded protein stability index.
[out] 2.71

---

experiment: protein stability index of a GFP-peptide fusion (yeast GPS) (PSI 1-4); higher = more stable; sorted into four equal gates, so the index is relative within each strain; conditions: san1∆
measured quantity: protein stability index
Give the value as a plain number.

[in] Entry SFGKIYVTKPMVNESDG [RPB2] has what protein stability index?
[out] 3.01

[in] Give the measured protein stability index of AGRKFKSRRCDDMLYYI [POP4] .
[out] 3.21

[in] What does the record list as protein stability index for PQIVVPDAQNELPKFIL [DIS3] ?
[out] 2.92

[in] Reported protein stability index for FSSPAALMKTLIKFVDL [NUT1] : what is it?
[out] 1.95

[in] Looking for the measured protein stability index of SQIFDQLKDMQTIEMIT [SRB8] , can you help?
[out] 2.72

[in] protein stability index for EDAFNFWFDKLVTKILP [YCG1] ?
[out] 2.88

[in] Entry NVDKNLNEIKEHKIVVL [RPN14] : reported protein stability index = ?
[out] 2.42

[in] Requested read-out: protein stability index. Entry: YVKAVSDKAQLNVVMKN [SMC4]
[out] 1.6

[in] What does the record list as protein stability index for NQPHQSQTPSFNTNSSF [YOR098C/NUP1] ?
[out] 2.93

[in] Which value of protein stability index has been reported for FKNTRETAQAINGWELT [RPL17A] in the records?
[out] 2.06

[in] Data request, read-out protein stability index, for SRYEPKVFDCGDNIVMS [PRE7]
[out] 2.89

[in] Sample IQGISKMYSDDTLKDIS [BRN1] — what was its protein stability index?
[out] 3.37

[in] Need protein stability index, item VTQKDICILGILDLCQL [CSI1]
[out] 2.24

[in] Given EEYKQLVKDRKFLREVF [RPO21] , state its recorded protein stability index.
[out] 2.81

[in] Look up protein stability index for this sequence: FLLVPSKQVQVSQQPLS [ECM29]
[out] 1.42

[in] # input sequence: VMYGTAYKFEEVSKDLI [RPB8] ; wanted: its protein stability index
[out] 3.34

[in] Name the recorded protein stability index for RGYFITQEEVELPLEDF [RPB5] .
[out] 3.28

[in] If you can, please state the reported protein stability index value of HLSKSPADRPQGRRNSR [SIR4] .
[out] 2.75

[in] Quick check: protein stability index of AGIKTRKFVFNPPKPRK [CYT1] ?
[out] 3.03

[in] What measured protein stability index goes with IFRGSLIGCIPYSKNAV [YDL088C/ASM4] ?
[out] 2.14

[in] Requested field: protein stability index. Item: TQPKATSTGTTIVGVKF [PUP1]
[out] 3.28

[in] Any idea what protein stability index was measured for SLVNSYIIDSPQPSSIN [COB] ?
[out] 1.64

[in] Please look up its protein stability index: RPFEGLFVISTEISPMA [RRP45]
[out] 3.04

[in] // query protein stability index value for entry DNKMDSVKEDVKNNQEL [SMC4]
[out] 2.51

[in] Query: protein stability index; subject: FQLVNDVMDELITSSAR [SIR3]
[out] 3.42

[in] Which protein stability index value is on record for MKVEELIIDGFKSYATR [SMC2] ?
[out] 3.11

[in] Item IDHSDESNRQSVIVDSK [ESC2] has what recorded protein stability index?
[out] 3.08

[in] So what's the measured protein stability index for this one? TISSLFVQLCEMGYLIQ [RPC82]
[out] 1.61

[in] What measured protein stability index goes with HQNESSAASIPPQQTYH [RPN4] ?
[out] 2.53

[in] Fill in: protein stability index of QQKANLLSSSNFEATKK [COR1] is ___
[out] 2.1

[in] Which measured protein stability index value corresponds to RFMRFLADRDEFIQDSA [ECM29] ?
[out] 1.21

[in] // returns reported protein stability index for input KRAEKKAKERLQALKAN [SNF2]
[out] 1.73

[in] Bench note: what protein stability index did GEEDAVDLLLEIESIDK [RPN1] show?
[out] 3.25

[in] Please report the recorded protein stability index for KTPNRSSTPKFTKKPVT [SIR4] .
[out] 2.91

[in] Give its protein stability index value. Item: ALFQPPNFDWDLCSSVL [ROX3]
[out] 2.95

[in] Name the recorded protein stability index for EKIDGMDVDSVKTTLVS [RPC82] .
[out] 2.73

---

assay: protein stability index of a GFP-peptide fusion (yeast GPS) (PSI 1-4); higher = more stable; sorted into four equal gates, so the index is relative within each strain; settings: san1∆
measured quantity: protein stability index

[in] Which protein stability index is listed for NPRRLEIKDGRSLFLRN [YMR153W/NUP53] ?
[out] 3.2

[in] Any idea what protein stability index was measured for EIEDGQDGGVTPYSNES [RPO21] ?
[out] 3.38

[in] Value lookup for protein stability index; key = INSPMPQQAQMQQAQFQ [SNF2]
[out] 3.11

[in] GET /values?readout=protein stability index&item= SLSDEVMRNEIRITSLQ [SIR4]
[out] 2.81

[in] Requested field: protein stability index. Item: SELPDIYSRDIGAELKR [SNF2]
[out] 3.38

[in] So what does the record say about protein stability index for RVHRLLRRGNYAQRIGS [HTA1] ?
[out] 2.64

[in] If you can, please state the reported protein stability index value of RKRAHSLVSTQSSSSTR [REC8] .
[out] 2.77

[in] # query: protein stability index of entry AVPAATPANTNNSTSNA [SWI1]
[out] 2.65

[in] Field request: protein stability index | item: FRKIKLRVDEVQGKNLL [RPS1A]
[out] 2.93

[in] What measured protein stability index goes with VTVVDTPPVVVVGVVGY [RPL3] ?
[out] 1.26

[in] Quick check: protein stability index of RGMLGLLEPPAKELQGI [RPO31] ?
[out] 3.28

[in] Query (sequence): MGQIATFIYFAYFLIIV [COB] ; field requested: protein stability index
[out] 1.16

[in] Dear colleague, I am looking for the recorded protein stability index of the following sequence: NLGSNVRNSFPLDEIPV [REC8]
[out] 2.88

[in] Requested read-out: protein stability index. Entry: LDPLTKDPVDFVRQAAM [RPN2]
[out] 3.17

[in] Name the reported protein stability index value associated with the sequence IIRQLSELNEGNLSKRE [SRB8]
[out] 3.4

[in] Quick one: protein stability index of RYWVQKERSDGKRHIFD [CDC53] ?
[out] 3.46

[in] Returns the measured protein stability index for the input sequence. Input: SLDLNNLELGGLNMDFL [PGD1]
[out] 3.37
